Overview of reported CTG-3D luminescence at 96 h across a group of compounds:
# System: HCI-001 (organoid from a triple-negative breast cancer xenograft)
# RUN_DESCRIPTION: CTG-3D luminescence at 96 h relative to day-0 seeding control (ratio to day 0); higher = more growth / less cytotoxicity; PDxO 3D drug screen, 96 h, CTG-3D normalised to day-0 seeding control.
# TEST_SETTINGS: 0.00025 µM; days in culture: 346

INSERT INTO results (compound, target_or_system, readout, result) VALUES
  ('CC(=O)O[C@H]1C(=O)[C@@]2(C)[C@H]([C@H](OC(=O)c3ccccc3)[C@]3(O)C[C@H](OC(=O)[C@H](O)[C@@H](NC(=O)c4ccccc4)c4ccccc4)C(C)=C1C3(C)C)[C@]1(OC(C)=O)CO[C@@H]1C[C@@H]2O', 'HCI-001', 'CTG-3D luminescence at 96 h', 1.24),
  ('CN(Cc1cnc2nc(N)nc(N)c2n1)c1ccc(C(=O)N[C@@H](CCC(=O)O)C(=O)O)cc1 [methotrexate]', 'HCI-001', 'CTG-3D luminescence at 96 h', 1.34),
  ('CC(C)(C(=O)NCC(F)(F)C(F)(F)F)C(=O)N[C@@H]1C(=O)Nc2ccccc2-c2ccccc21', 'HCI-001', 'CTG-3D luminescence at 96 h', 1.31),
  ('CCc1c2c(nc3ccc(O)cc13)-c1cc3c(c(=O)n1C2)COC(=O)[C@]3(O)CC', 'HCI-001', 'CTG-3D luminescence at 96 h', 1.2),
  ('CS(=O)(=O)c1ccc(C(=O)Nc2ccc(Cl)c(-c3ccccn3)c2)c(Cl)c1', 'HCI-001', 'CTG-3D luminescence at 96 h', 1.38);

Q: Consider the compound COc1cc2c(Oc3ccc4[nH]c(C)cc4c3F)ncnc2cc1OCCCN1CCCC1 . State its measured CTG-3D luminescence at 96 h.
A: 1.18

Q: Consider the compound C=CCn1c(=O)c2cnc(Nc3ccc(N4CCN(C)CC4)cc3)nc2n1-c1cccc(C(C)(C)O)n1 . State its measured CTG-3D luminescence at 96 h.
A: 1.34

Q: Consider the compound Cc1nc(-c2cn3c(n2)-c2ccc(-c4cnn(C(C)(C)C(N)=O)c4)cc2OCC3)n(C(C)C)n1 . State its measured CTG-3D luminescence at 96 h.
A: 1.22

----------
# Tested on: HCI-025 (organoid from a breast cancer xenograft)
# RUN_DESCRIPTION: CTG-3D luminescence at 96 h relative to day-0 seeding control (ratio to day 0); higher = more growth / less cytotoxicity; PDxO 3D drug screen (set 2), 96 h, CTG-3D normalised to day-0 seeding control.
# TEST_SETTINGS: 625 fM; days in culture: 175
Overview of reported CTG-3D luminescence at 96 h across a group of molecules:
Answer field: number only, no words.

Consider the following illustrative entries.
INSERT INTO results (molecule, readout, measured_number) VALUES
  ('C[C@@H](Nc1cc(F)cc(F)c1)c1cc(C(=O)N(C)C)cc2c(=O)cc(N3CCOCC3)oc12', 'CTG-3D luminescence at 96 h', 1.51),
  ('CC(=O)c1c(C)c2cnc(Nc3ccc(N4CCNCC4)cn3)nc2n(C2CCCC2)c1=O', 'CTG-3D luminescence at 96 h', 1.97),
  ('Nc1cc(C(F)(F)F)c(-c2cc(N3CCOCC3)nc(N3CCOCC3)n2)cn1', 'CTG-3D luminescence at 96 h', 1.71),
  ('COc1cccc2c1C(=O)c1c(O)c3c(c(O)c1C2=O)C[C@@](O)(C(=O)CO)C[C@@H]3O[C@H]1C[C@H](N)[C@@H](O)[C@H](C)O1 [epirubicin]', 'CTG-3D luminescence at 96 h', 1.31);

API: the following record is the query input.
Q: Consider the molecule Cc1c(CN2CCN(C(=O)[C@H](C)O)CC2)sc2c(N3CCOCC3)nc(-c3cnc(N)nc3)nc12 . State its measured CTG-3D luminescence at 96 h.
A: 1.16
